Quick reference: GI50 of the listed items.
# System: NCI-H522 lung
# MEASUREMENT DESCRIPTION: NCI tumour cell line growth inhibition, 48 h

input: Consider the compound C[C@]1(Cn2ccnn2)C(C(=O)O)N2C(=O)CC2S1(=O)=O (stereo not given in full) and give its measured GI50.
output: > 100000 nM

input: Same lookup for `CCOC(=O)c1c(C)nc2c(c1N)CC(=O)N2CCc1ccccc1` , please.
output: 283 nM

input: Thanks! And Cc1ccc(C2=Nc3c(N)ncnc3NC(c3ccc4c(c3)OCO4)C2)cc1 (stereo not given) ?
output: 3670 nM

input: Request: `COc1cc2ncnc(Nc3ccc4c(cnn4Cc4ccccc4)c3)c2cc1OC`
output: 724 nM

input: Entry to check: COc1cc(C2C3=C(COC3=O)Nc3c2ccc2c3CCCC2)cc2c1OCO2 (stereo not given)
output: 23.9 nM

Data provenance is PubChem BioAssay (NCI).
